The origin of these recorded values is patent US20260217701A1.

assay: Rat PK study #4 (Compound A PO 0.2 and 1.0 mg/kg, propylene glycol formulation); assay type: in vivo, Lewis rats; conditions: male, Lewis, rat, plasma, po, 0.2 mg/kg, 0.2 mg/kg PO, propylene glycol-based formulation; individual animals
measure: half-life
# include the unit after the value

Field half-life (entry Cn1cc(-c2ccccc2)c(-c2cn(C)c(=O)c3[nH]c(-c4cnn(C(F)(F)F)c4)cc23)cc1=O [Compound A] ) reads 391 min

----------
assay: Rat PK study #4 (Compound A PO 0.2 and 1.0 mg/kg, propylene glycol formulation); assay type: in vivo, Lewis rats; conditions: male, Lewis, rat, plasma, po, 1 mg/kg, Lewis rats, PO 1 mg/kg, propylene glycol-based formulation, 1 h, mean of 3 animals
measure: concentration at 1 h (µg/mL)
Number in µg/mL, nothing else.

Input `Cn1cc(-c2ccccc2)c(-c2cn(C)c(=O)c3[nH]c(-c4cnn(C(F)(F)F)c4)cc23)cc1=O` . Output concentration at 1 h: 0.0304
